# subjectOfTest: T1, full-length Ste2p V49D (Saccharomyces cerevisiae, UniProt D6VTK4 1-431, V49D)
# T1 sequence (looked up): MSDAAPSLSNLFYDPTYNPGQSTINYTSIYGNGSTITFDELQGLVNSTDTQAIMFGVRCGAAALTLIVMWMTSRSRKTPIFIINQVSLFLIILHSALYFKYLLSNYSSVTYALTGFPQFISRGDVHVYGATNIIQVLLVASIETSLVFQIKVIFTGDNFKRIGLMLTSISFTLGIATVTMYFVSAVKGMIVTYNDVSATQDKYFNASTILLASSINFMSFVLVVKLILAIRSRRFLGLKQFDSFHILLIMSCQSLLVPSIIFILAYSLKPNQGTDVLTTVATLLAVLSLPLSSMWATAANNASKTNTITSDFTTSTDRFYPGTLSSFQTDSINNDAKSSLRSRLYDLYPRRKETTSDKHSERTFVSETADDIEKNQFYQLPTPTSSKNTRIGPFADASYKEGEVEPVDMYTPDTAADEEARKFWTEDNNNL
# procedureText: flow cytometry on cells
experimentalReadout: pKd
Conceptually, pKd converts a concentration in mol/L into minus its log10.

Ask: Please look at this binder and report its pKd: WHWLQLKPGQPMY (NBD (7-nitrobenz-2-oxa-1,3-diazol-4-yl) conjugated to the lysine at position 7; norleucine at position 12 in place of methionine) [[K^7(NBD),Nle^12] α-factor]
Reply: 7.31

// data source = paper PMC4405178
